Test target: GDP-bound KRAS wild-type protein (Homo sapiens, UniProt P01116)
Sequence (P01116 1-188 isoform P01116-2): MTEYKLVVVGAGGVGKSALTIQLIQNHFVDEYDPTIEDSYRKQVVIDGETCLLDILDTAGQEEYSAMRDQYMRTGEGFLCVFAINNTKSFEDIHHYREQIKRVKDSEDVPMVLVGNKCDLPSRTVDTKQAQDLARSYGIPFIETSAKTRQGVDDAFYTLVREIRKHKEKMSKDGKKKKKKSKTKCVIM
Assay method text: Binding to KRAS by surface plasmon resonance (SPR), dissociation constant KD
Experimental context: 1:1 binding model
Where a SMILES comes first, the peptide text is derived from it. Bridges are numbered along the chain shown (N, C = ends). [ ]: non-standard residue; d: D form. The star is where a group is joined. hPhe(3-Cl-4-CF3) = N[C@@H](CCc1ccc(C(F)(F)F)c(Cl)c1)C(=O)O; NPrPhe(4-CF3) = CCCN[C@@H](Cc1ccc(C(F)(F)F)cc1)C(=O)O; NMeGly(cPent) = CN[C@H](C(=O)O)C1CCCC1; NMeD = CN[C@@H](CC(=O)O)C(=O)O; NMeL = CN[C@@H](CC(C)C)C(=O)O; Pip = O=C(O)[C@@H]1CCCCN1; Morpholide = C1CN(*)CCO1; Ac5c = NC1(C(=O)O)CCCC1; Aze = O=C(O)[C@@H]1CCN1; Sar = CNCC(=O)O
Observation type: Kd (nM)
One number for each entry, in nM.

Please supply the value of reported Kd for the item CCCN1C(=O)[C@@H]2CCN2C(=O)[C@@H]2CCCCN2C(=O)[C@H]([C@@H](C)CC)NC(=O)[C@H](CC(C)C)N(C)C(=O)C[C@@H](C(=O)N2CCOCC2)N(C)C(=O)[C@H](C2CCCC2)N(C)C(=O)C2(CCCC2)NC(=O)[C@@H]2CCCN2C(=O)[C@H](CCc2ccc(C(F)(F)F)c(Cl)c2)NC(=O)CN(C)C(=O)[C@@H]1Cc1ccc(C(F)(F)F)cc1 [PP0077] ([NMeL]I[Pip][Aze][NPrPhe(4-CF3)][Sar][hPhe(3-Cl-4-CF3)]P[Ac5c][NMeGly(cPent)][NMeD]-Morpholide; lactam N-11)
0.2
